Below, each entry is listed alongside its reported IC50.
- assayedTarget: Sodium-dependent serotonin transporter (Homo sapiens)
- Sequence (P31645 whole entry): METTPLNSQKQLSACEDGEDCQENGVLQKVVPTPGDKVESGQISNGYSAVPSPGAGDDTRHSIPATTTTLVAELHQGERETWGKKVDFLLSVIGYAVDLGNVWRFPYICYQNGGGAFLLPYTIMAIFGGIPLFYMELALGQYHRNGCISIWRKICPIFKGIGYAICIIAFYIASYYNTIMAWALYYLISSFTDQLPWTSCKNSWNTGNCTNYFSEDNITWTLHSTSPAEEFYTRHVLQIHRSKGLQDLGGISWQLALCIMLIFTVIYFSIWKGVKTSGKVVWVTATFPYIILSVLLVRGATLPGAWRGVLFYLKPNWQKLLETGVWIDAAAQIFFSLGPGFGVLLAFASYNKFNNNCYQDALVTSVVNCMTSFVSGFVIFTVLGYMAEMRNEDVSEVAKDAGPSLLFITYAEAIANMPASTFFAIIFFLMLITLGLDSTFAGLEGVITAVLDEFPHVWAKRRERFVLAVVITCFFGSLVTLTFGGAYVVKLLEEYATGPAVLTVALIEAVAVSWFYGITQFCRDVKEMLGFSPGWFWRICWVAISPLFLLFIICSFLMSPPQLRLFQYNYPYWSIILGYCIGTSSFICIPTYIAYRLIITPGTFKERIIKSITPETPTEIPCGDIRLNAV
The reply should contain only the number, in µM.

Some solved cases for reference:
compound	resultUnit	reportedValue
CC(=O)Nc1ccc2c(c1)[C@]13CCCC[C@@H]1[C@H](C2)N(C)CC3	µM	435
CCN1CC[C@@]23CCCC[C@@H]2[C@@H]1Cc1ccc(O)cc13	µM	5400
CCOc1ccc2c(c1)[C@]13CCCC[C@@H]1[C@H](C2)N(CC)CC3	µM	2000
CC(O)c1ccc2c(c1)[C@]13CCCC[C@@H]1[C@H](C2)N(C)CC3 (some centres not stated)	µM	1090
CN1CC[C@@]23CCCC[C@@H]2[C@@H]1Cc1ccc(NC=O)cc13	µM	270
CN1CC[C@@]23CCCC[C@@H]2[C@@H]1Cc1ccc(NC(=O)c2ccccc2)cc13	µM	7600
CCc1ccc2c(c1)[C@]13CCCC[C@@H]1[C@H](C2)NCC3	µM	1890
CN1CC[C@@]23CCCC[C@@H]2[C@@H]1Cc1ccccc13	µM	333

Look up IC50 of CNc1ccc2c(c1)[C@]13CCCC[C@@H]1[C@H](C2)N(C)CC3 and report it.
577

Value source: ChEMBL document CHEMBL6114989
